# test.method.notes: chemical genetic growth profiling, strain panel (AID 1159580);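 further: tested at 20 µM; growth read once vehicle control cultures reached saturation at 30 °C; 1 = growth at the plate median or of vehicle wells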
# settings: S. cerevisiae deletion strains, growth OD, locus YDR150W, strain NUM1, stronger effect = lower value
About 2,000 (36%) of roughly 5,500 compounds were called active. Not shown: some 18% with an inconclusive outcome. The list shows a part of the results.
For each entry below, report its normalized growth value.
Answers are plain numbers.

molecule	normalized growth
Oc1cc(O)c2c(c1)O[C@H](c1ccc(O)c(O)c1)[C@H](O)C2	0.984
O=C1C2C=CC=CC2=NC(=S)N1CCN1CCC(=C(c2ccc(F)cc2)c2ccc(F)cc2)CC1 (stereo not drawn)	1
CC[C@@]1(O)C[C@H](O[C@H]2C[C@H](N(C)C)[C@H](O)[C@H](C)O2)c2c(cc3c(c2O)C(=O)c2c(O)ccc(O)c2C3=O)[C@H]1C(=O)OC	0.112
O=S(=O)(O)CCS	1.01
COc1ccc(CN(CCN(C)C)c2ccccn2)cc1	1.02

Answer for every listed entry: what is its normalized growth? The entries follow.
1. CCN(CC)C(=O)N1CCN(C)CC1
2. CCC[C@H](N[C@@H](C)C(=O)N1[C@H](C(=O)O)C[C@@H]2CCCC[C@@H]21)C(=O)OCC
3. O=[N+]([O-])c1ccc(N2CCCCC2)nc1N1CCCCC1

Found:
1.02
1.02
0.961

Count: 3. Required value per item: normalized growth.
1. CC[C@H]1OC(=O)[C@H](C)[C@@H](O[C@H]2C[C@@](C)(OC)[C@@H](O)[C@H](C)O2)[C@H](C)[C@@H](O[C@@H]2O[C@H](C)C[C@H](N(C)C)[C@H]2O)[C@](C)(OC)C[C@@H](C)C(=O)[C@H](C)[C@@H](O)[C@]1(C)O
2. CC1(C)CCC[C@@]2(C)C1[C@@H](O)C[C@]1(C)C2CC[C@@H]2[C@@]3(C)CC[C@H](C(C)(C)O)[C@@H]3CC[C@@]21C (stereo partly drawn)
3. Cc1ccc(-c2csc(CC#N)n2)cc1C

Found:
0.987
0.992
0.989

---

# test.method.notes: chemical genetic growth profiling, strain panel (AID 1159580)
# settings: S. cerevisiae deletion strains, growth OD, locus YNL307C, strain MCK1
Among all 5,500 compounds or so, about 2,000 (36%) were called active. Another 18% or so got no clear call; they are omitted. Cut-off read from the data, not from the text of the source: active = normalized growth mostly below about 0.91 (no sharp cut-off); inconclusive = no clear call, values can overlap the other calls; inactive = mostly above about 0.92. The list shows a part of the results.
// allowed return values: 1 (yes) (active), 0 (no) (inactive)

Look over these answered cases.
molecule	assigned.category
CCC1(O)CC(OC2CC(N(C)C)C(OC3CC(O)C(OC4CCC(=O)C(C)O4)C(C)O3)C(C)O2)c2c(cc3c(c2O)C(=O)c2c(O)cccc2C3=O)C1C(=O)OC (configuration not stated)	0 (no)
NCCCS(=O)(=O)O	0 (no)
Cc1[nH]c2ccccc2c1CN(C)C	0 (no)

Here's the next entry for you.
Lookup: Returns: the outcome recorded for COc1ccc(-c2coc3cc(O)ccc3c2=O)c(OC)c1 in this assay.
Found: 0 (no)

---

# test.method.notes: chemical genetic growth profiling, strain panel (AID 1159580);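 further: tested at 20 µM; growth read once vehicle control cultures reached saturation at 30 °C; 1 = growth at the plate median or of vehicle wells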
# settings: S. cerevisiae deletion strains, growth OD, locus YLR262C, strain YPT6
In all, about 5,500 compounds went through this assay and about 2,000 (36%) were called active. Roughly 18% stayed inconclusive and do not appear here. No stated cut-off is given here; in the data, active means normalized growth mostly below about 0.91 (no sharp cut-off); inconclusive means no clear call, values can overlap the other calls; inactive means mostly above about 0.92. The list shows a part of the results.
Would you mind answering with one of these outcomes? active, inactive

Use these answered entries as a reference point.
molecule	assigned.category
CSc1c(-c2ccccc2)c(N)nn1S(=O)(=O)c1ccccc1	inactive
C/C(=C\C(=O)Nc1ccc(F)cc1)Nc1ccc(F)cc1	inactive
O=C(OCC(O)CO)c1ccccc1Nc1ccnc2cc(Cl)ccc12 (centres undefined)	inactive
Cn1c2c(c(=O)n(C)c1=O)CN(CCCCCCO)CN2	inactive
CC[C@@H](C(=O)C(C)[C@@H](O)[C@H](C)CCc1ccc(C)c(O)c1C(=O)O)C1OC(CC)(C2CC[C@](O)(CC)[C@H](C)O2)C[C@@H]1C (some centres undefined)	inactive

Lookup: How did this test come out for COc1cc2c(cc1OC)C(=O)c1ccc(OC)c(OC)c1OCC(=O)C2 ?
Found: inactive

Lookup: Please share the test call associated with C/C(=N/O)c1sc2nc(C(F)(F)F)nn2c1C .
Found: inactive

Lookup: What outcome does the record of this test show for CCC[C@H](N[C@@H](C)C(=O)N1[C@H](C(=O)O)C[C@@H]2CCCC[C@@H]21)C(=O)OCC ?
Found: inactive

Lookup: Which outcome was entered for the molecule CN1C2C[C@H](OC(=O)[C@H](CO)c3ccccc3)C[C@H]1[C@@H](O)C2 in this test?
Found: inactive

Lookup: // outcome(item) with item = COc1ccc2c(c1)OC/C(=C/c1ccc(OC)c(OC)c1)C2=O
Found: inactive

Lookup: Field: outcome | Entry: COc1ccc2c(c1)OC/C(=C\c1ccc(OC)c(O)c1)C2=O
Found: active

Lookup: Test call for this molecule, please: CCN(CC)Cc1ccc(Nc2ccnc3cc(Cl)ccc23)cc1O
Found: inactive

Lookup: Per the assay record, what outcome was assigned to CCC1(O)CC(OC2CC(N(C)C)C(OC3CC(O)C(OC4CCC(=O)C(C)O4)C(C)O3)C(C)O2)c2c(cc3c(c2O)C(=O)c2c(O)cccc2C3=O)C1C(=O)OC (centres undefined) ?
Found: inactive

---

# test.method.notes: chemical genetic growth profiling, strain panel (AID 1159580);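 further: tested at 20 µM; growth read once vehicle control cultures reached saturation at 30 °C; 1 = growth at the plate median or of vehicle wells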
# settings: S. cerevisiae deletion strains, growth OD, locus YDR069C, strain doa4, stronger effect = lower value
Out of some 5,500 compounds screened, about 2,000 (36%) were called active. Roughly 18% stayed inconclusive and do not appear here. The list shows a part of the results.
experimental.readout: normalized growth
Numbers only.

compound	normalized growth
Cc1ccc(C(=O)Nc2ccc(S(=O)(=O)O)c3cc(S(=O)(=O)O)cc(S(=O)(=O)O)c23)cc1NC(=O)c1cccc(NC(=O)Nc2cccc(C(=O)Nc3cc(C(=O)Nc4ccc(S(=O)(=O)O)c5cc(S(=O)(=O)O)cc(S(=O)(=O)O)c45)ccc3C)c2)c1	1.02
Oc1cc(O)c2c(c1)O[C@H](c1ccc(O)c(O)c1)[C@@H](O)C2	1.02
C=CCc1ccc(O)c(OC)c1	1
C[C@@H]1CC(Cl)CC[C@H]1C(=O)OC(C)(C)C (stereo partly drawn)	0.97
Oc1cc(O)c2c(c1)O[C@H](c1ccc(O)c(O)c1)[C@H](O)C2	1
COc1ccc(-c2coc3cc(O)ccc3c2=O)c(OC)c1	0.982

State the recorded normalized growth for every item in the following list.
1. CCC(C)C(=O)O[C@@H]1C[C@@]2(C)[C@H](c3ccoc3)OC(=O)CC23OC2(C)O[C@]14[C@]1(C)[C@@H](CC(=O)OC)C5(C)CC1(O)[C@](O)(C5OC(=O)C1(C)OC1C)[C@@H](OC(C)=O)[C@]34O2 (stereo partly drawn)
2. COc1c(N2CCNC(C)C2)c(F)cc2c(=O)c(C(=O)O)cn(C3CC3)c12 (stereo not drawn)
3. COc1ccc(-c2coc3cc(O)ccc3c2=O)c(O)c1O
4. CCn1cc(C(=O)O)c(=O)c2cc(F)c(N3CCNCC3)nc21
5. CN1C2CCC1CC(OC(c1ccccc1)c1ccccc1N)C2 (stereo not drawn)
6. CC1COc2c(N3CCN(C)CC3)c(F)cc3c(=O)c(C(=O)O)cn1c23 (stereo not drawn)
7. Oc1cc(O)c2c(c1)O[C@H](c1cc(O)c(O)c(O)c1)[C@H](O)C2

Found:
1. 1.01
2. 0.99
3. 0.762
4. 0.982
5. 1
6. 1.01
7. 0.993

Each of the following entries comes with a recorded value; kindly state normalized growth for each.
1. CC(=O)O[C@H]1C[C@@H](OC(C)=O)C(C)(C)C2CC(=O)[C@]3(C)C(CC[C@@]4(C)[C@H](C(=O)O)OC(=O)C5OC543)[C@]21C (stereo partly drawn)
2. CO/N=C1/CN(c2nc3c(cc2F)c(=O)c(C(=O)O)cn3C2CC2)CC1CN (stereo not drawn)
3. C=CCc1ccc(OC)cc1

Found:
1: 0.994; 2: 0.979; 3: 1.01

State recorded normalized growth for all listed compounds.
1. COC(=O)C[C@H]1C2(C)CC34OC5(C)O[C@@]6([C@H](OC(C)=O)C(OC(C)=O)[C@]7(C)C(/C(=C(/O)C(C)C)C(=O)O[C@H]7c7ccoc7)[C@@]6(O5)[C@H](OC(C)=O)[C@@]3(O)C2OC(=O)C(C)C)[C@]14C (stereo partly drawn)
2. COc1ccc(C(=O)O)cc1OC

Found:
1: 1; 2: 1.01

---

# test.method.notes: chemical genetic growth profiling, strain panel (AID 1159580);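 further: tested at 20 µM; growth read once vehicle control cultures reached saturation at 30 °C; 1 = growth at the plate median or of vehicle wells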
# settings: S. cerevisiae deletion strains, growth OD, locus YJL166W, strain qcr8, stronger effect = lower value
The campaign covered roughly 5,500 compounds. About 2,000 (36%) were called active. Roughly 18% stayed inconclusive and do not appear here. The list shows a part of the results.
For each entry below, report its normalized growth value.
Give bare numbers.

Reference set, count: 2
compound	normalized growth
COc1cc([C@@H]2c3cc4c(cc3C(OC3O[C@@H]5COC(C)O[C@H]5[C@H](O)[C@H]3O)C3COC(=O)[C@@H]32)OCO4)cc(OC)c1O (stereo partly drawn)	1.02
CC(=O)O[C@H]1C[C@@H](OC(C)=O)C(C)(C)C2CC(=O)[C@]3(C)C(CC[C@@]4(C)[C@H](C(=O)O)OC(=O)C5OC543)[C@]21C (stereo partly drawn)	0.977

In the following, a different compound is considered.
Lookup: State its normalized growth for this compound: COc1cc([C@@H]2c3cc4c(cc3[C@@H](O)C3COC(=O)C32)OCO4)cc(OC)c1O (stereo partly drawn)
Found: 0.997
